B1: ZNF277 (parent)
chain: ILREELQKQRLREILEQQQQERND

Variants of: B1
MEASUREMENT DESCRIPTION: protein stability index of a GFP-peptide fusion (GPS, HEK-293T) (PSI 1-6); higher = more stable;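 also: lentivirally expressed fusions sorted by FACS into six bins by GFP to DsRed ratio, PSI derived from sequencing read proportions per bin multiplied by bin number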
MEASUREMENT CONTEXT: c terminus: a fixed tail appended
Listing of entries alongside the reported protein stability index.
REPORTED METRIC: protein stability index

1) I1L	4.09
2) D24H	3.16
3) R10E	4.83
4) E4T	4.42
5) L15M	4.03
6) R12P	4.78
7) E13C	3.76
8) Q18K	3.72
9) R3K	4.64
10) E16H	3.87
11) L2A	5.13
